SYSTEM NAME: Human immunodeficiency virus type 1 protease (Human immunodeficiency virus 1)
PROTOCOL DETAILS: Percent inhibition of human immunodeficiency virus-1 protease after 1 uM treatment
MEASUREMENT KIND: inhibition (%)
Dear colleague, please return just the value in %, with no unit written.

CCC(C)[C@@H](NC(=O)[C@@H](NC(=O)CCCCCCCCCCCCCCC(=O)N[C@H](CC(=O)N[C@@H](Cc1ccccc1)C(=O)O)C(N)=O)C(C)O)C(=O)NC(C(N)=O)c1ccccc1 (stereo not given in full) | 29
CC(O)[C@H](NC(=O)CCCCCCCCCCCCCCC(=O)N[C@H](CC(=O)N[C@@H](Cc1ccccc1)C(=O)O)C(N)=O)C(=O)N[C@@H](C(=O)N[C@@H](Cc1ccccc1)C(N)=O)C1CCCCC1 (stereo not given in full) | 45
CC[C@H](C)[C@@H](NC(=O)C(C)(C)NC(=O)CCCCCCCCCCCCCCC(=O)N[C@H](CC(=O)N[C@@H](Cc1ccccc1)C(=O)O)C(N)=O)C(=O)N[C@@H](Cc1ccccc1)C(N)=O | 7
CC(O)[C@H](NC(=O)CCCCCCCCCCCCCCC(=O)N[C@H](CC(=O)N[C@@H](Cc1ccccc1)C(=O)O)C(N)=O)C(=O)N[C@H](CC1CCCCC1)C(=O)N[C@@H](Cc1ccccc1)C(N)=O (stereo not given in full) | 30

Would you kindly look at the next entry?
Asked: Recall the recorded inhibition for "CC[C@H](C)[C@@H](NC(=O)c1cccc(CNC(=O)CCCCCCCCCCCCCCC(=O)N[C@H](CC(=O)N[C@@H](Cc2ccccc2)C(=O)O)C(N)=O)c1)C(=O)N[C@@H](Cc1ccccc1)C(N)=O" with Human immunodeficiency virus type 1 protease (Human immunodeficiency virus 1) and state it.
Given back: 10
